- assayTarget: Bromodomain-containing protein 4 (Homo sapiens, UniProt O60885)
- testDetails: Inhibition of His-tagged BRD4 (unknown origin) using tetra-acetylated histone H4 peptide as substrate by fluorescent polarization binding assay
pIC50: −log10 of the molar value.
parameterMeasured: pIC50

- chemicalStructure: "Cc1cnc2c(-c3ccc(C(=O)N(c4ncccc4C)[C@@H]4CCCNC4)cc3F)cnn2c1"
  endpointValue: "< 4.60"

----------
- assayTarget: Beta-2 adrenergic receptor (Homo sapiens)
- Sequence (P07550 whole entry): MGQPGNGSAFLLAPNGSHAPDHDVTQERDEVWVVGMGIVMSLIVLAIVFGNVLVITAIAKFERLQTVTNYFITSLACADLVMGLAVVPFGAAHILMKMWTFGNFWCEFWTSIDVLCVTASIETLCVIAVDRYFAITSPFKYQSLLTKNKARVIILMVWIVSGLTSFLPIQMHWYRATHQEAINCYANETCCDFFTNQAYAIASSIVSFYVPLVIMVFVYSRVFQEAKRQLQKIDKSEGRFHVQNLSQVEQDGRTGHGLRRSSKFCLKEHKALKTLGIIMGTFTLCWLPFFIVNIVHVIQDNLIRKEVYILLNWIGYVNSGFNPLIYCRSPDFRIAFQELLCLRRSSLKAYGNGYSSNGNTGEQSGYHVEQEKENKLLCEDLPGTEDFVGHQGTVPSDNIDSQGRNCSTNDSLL
- testDetails: Agonist activity at adrenergic beta2 receptor (unknown origin) expressed in cells measured after 90 mins by beta-arrestin recruitment assay
parameterMeasured: EC50

- chemicalStructure: "Cc1cnc2c(-c3ccc(C(=O)N(c4ncccc4C)[C@@H]4CCCNC4)cc3F)cnn2c1"
  assayTarget: "Beta-2 adrenergic receptor (Homo sapiens)"
  parameterMeasured: "EC50"
  endpointValue: "> 10 µM"

----------
- testDetails: Inhibition of PDE3A1 (unknown origin) assessed as conversion of cAMP to AMP measured after 30 mins by YSi scintillation proximity assay
- Parameters: species or system Homo sapiens

- chemicalStructure: "Cc1cnc2c(-c3ccc(C(=O)N(c4ncccc4C)[C@@H]4CCCNC4)cc3F)cnn2c1"
  IC50: "99 µM"

----------
- System: K562
- testDetails: Modulation of CD33 pre-mRNA splicing in human K562 cells assessed as induction of exon 2 skipping at 25 uM measured after 18 to 24 hrs by Nano-Luciferase reporter assay
- Type: cell-based
- recordedConditions: filed as modulator, time 18-24 hrs

- chemicalStructure: "O=C(c1ccc(-c2cnn3cccnc23)cc1)N(c1nccc2ccccc12)[C@@H]1CCCNC1"
  unit: "%"
  Emax: 206
- chemicalStructure: "Cc1ccc2nnn(-c3ccc(C(=O)N(c4ncccc4Cl)[C@@H]4CCCNC4)cc3)c2n1"
  unit: "%"
  Emax: 155
- chemicalStructure: "CNc1cncc(-c2ccc(C(=O)N(c3ncccc3Cl)[C@@H]3CCCNC3)cc2)n1"
  unit: "%"
  Emax: 100

----------
- assayTarget: UniProt P21554
- Sequence (P21554 whole entry): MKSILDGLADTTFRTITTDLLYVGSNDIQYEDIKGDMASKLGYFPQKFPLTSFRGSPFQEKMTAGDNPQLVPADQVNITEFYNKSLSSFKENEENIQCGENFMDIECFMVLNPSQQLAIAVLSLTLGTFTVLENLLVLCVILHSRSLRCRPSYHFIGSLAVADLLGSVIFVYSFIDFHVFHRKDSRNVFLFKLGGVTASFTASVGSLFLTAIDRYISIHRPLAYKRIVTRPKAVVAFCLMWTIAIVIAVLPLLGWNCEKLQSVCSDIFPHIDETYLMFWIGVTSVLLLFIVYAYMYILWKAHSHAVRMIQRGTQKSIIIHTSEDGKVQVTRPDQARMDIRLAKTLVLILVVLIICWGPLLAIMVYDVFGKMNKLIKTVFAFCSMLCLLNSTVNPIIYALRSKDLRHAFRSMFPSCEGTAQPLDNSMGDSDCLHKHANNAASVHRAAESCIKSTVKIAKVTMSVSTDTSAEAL
- testDetails: Agonist activity at cannabinoid receptor 1 (unknown origin) expressed in cells measured after 90 mins by beta-arrestin recruitment assay
- Format: functional, cell-based

- chemicalStructure: "Cc1cnc2c(-c3ccc(C(=O)N(c4ncccc4C)[C@@H]4CCCNC4)cc3F)cnn2c1"
  assayTarget: "UniProt P21554"
  EC50: "> 10 µM"

----------
As shown below, each of these compounds has a reported Emax value.
- Tested on: K562
- testDetails: Modulation of CD33 pre-mRNA splicing in human K562 cells assessed as induction of exon 2 skipping at 25 uM measured after 18 to 24 hrs by Nano-Luciferase reporter assay
- Type: cell-based
- recordedConditions: filed as modulator, time 18-24 hrs

- chemicalStructure: "Cc1cccnc1N(C(=O)c1ccc(-c2cnn3cccnc23)cc1)[C@@H]1CCCNC1"
  unit: "%"
  Emax: 145
- chemicalStructure: "O=C(c1ccc(-n2nnc3cccnc32)cc1)N(c1ncccc1Cl)[C@@H]1CCCNC1"
  unit: "%"
  Emax: 100
- chemicalStructure: "COC(=O)c1c(-c2ccc(C(=O)N(c3ncccc3C)[C@@H]3CCCNC3)cc2)cnn1C"
  unit: "%"
  Emax: 220
- chemicalStructure: "Cc1cnc2c(-c3ccc(C(=O)N(c4ncccc4C)[C@@H]4CCCNC4)cc3F)cnn2c1"
  unit: "%"
  Emax: 100
- chemicalStructure: "Cc1cnc2c(c1)nnn2-c1ccc(C(=O)N(c2ncccc2Cl)[C@@H]2CCCNC2)cc1"
  unit: "%"
  Emax: 80

----------
- assayTarget: Voltage-gated inwardly rectifying potassium channel KCNH2 (Homo sapiens)
- Sequence (Q12809 whole entry): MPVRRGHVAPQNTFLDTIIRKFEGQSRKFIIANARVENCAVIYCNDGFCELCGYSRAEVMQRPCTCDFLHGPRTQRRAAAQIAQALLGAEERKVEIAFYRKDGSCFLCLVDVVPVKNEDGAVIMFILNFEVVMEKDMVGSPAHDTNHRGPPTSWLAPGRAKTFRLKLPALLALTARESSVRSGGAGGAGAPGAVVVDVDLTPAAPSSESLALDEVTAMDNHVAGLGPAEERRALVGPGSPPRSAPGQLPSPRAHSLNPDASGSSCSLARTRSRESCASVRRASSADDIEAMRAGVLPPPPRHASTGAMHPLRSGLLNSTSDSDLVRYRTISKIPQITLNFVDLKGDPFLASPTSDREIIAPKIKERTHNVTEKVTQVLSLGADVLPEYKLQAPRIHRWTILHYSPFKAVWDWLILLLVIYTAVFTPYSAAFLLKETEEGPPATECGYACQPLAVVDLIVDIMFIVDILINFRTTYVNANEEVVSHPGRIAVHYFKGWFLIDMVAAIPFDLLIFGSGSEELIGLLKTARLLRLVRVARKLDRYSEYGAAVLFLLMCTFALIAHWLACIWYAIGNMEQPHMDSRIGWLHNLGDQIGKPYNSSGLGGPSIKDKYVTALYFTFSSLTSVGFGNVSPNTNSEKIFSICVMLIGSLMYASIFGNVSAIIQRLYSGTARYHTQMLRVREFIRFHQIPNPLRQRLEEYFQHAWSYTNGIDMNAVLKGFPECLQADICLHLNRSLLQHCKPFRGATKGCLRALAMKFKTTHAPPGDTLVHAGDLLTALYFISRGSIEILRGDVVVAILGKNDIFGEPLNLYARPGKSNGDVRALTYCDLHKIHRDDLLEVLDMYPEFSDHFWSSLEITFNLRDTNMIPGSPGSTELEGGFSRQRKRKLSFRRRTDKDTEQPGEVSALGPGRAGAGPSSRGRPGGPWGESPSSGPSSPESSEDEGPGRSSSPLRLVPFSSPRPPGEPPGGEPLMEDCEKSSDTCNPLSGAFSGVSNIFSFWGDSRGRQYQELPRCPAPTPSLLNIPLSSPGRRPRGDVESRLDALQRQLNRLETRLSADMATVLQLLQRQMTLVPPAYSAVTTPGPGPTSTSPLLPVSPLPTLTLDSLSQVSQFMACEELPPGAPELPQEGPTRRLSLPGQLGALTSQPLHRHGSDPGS
- testDetails: Displacement of [3H]-dofetilide from human ERG

- chemicalStructure: "Cc1cnc2c(-c3ccc(C(=O)N(c4ncccc4C)[C@@H]4CCCNC4)cc3F)cnn2c1"
  assayTarget: "Voltage-gated inwardly rectifying potassium channel KCNH2 (Homo sapiens)"
  Ki: "7.2 µM"

----------
- testDetails: Cytotoxicity against human THLE cells by ATP depletion assay
- Assay type: cell-based
pIC50: −log10 of the molar value.

- chemicalStructure: "Cc1cnc2c(-c3ccc(C(=O)N(c4ncccc4C)[C@@H]4CCCNC4)cc3F)cnn2c1"
  pIC50: 3.69

----------
- assayTarget: Alpha-1A adrenergic receptor (Homo sapiens, UniProt P35348)
- Sequence (P35348 whole entry): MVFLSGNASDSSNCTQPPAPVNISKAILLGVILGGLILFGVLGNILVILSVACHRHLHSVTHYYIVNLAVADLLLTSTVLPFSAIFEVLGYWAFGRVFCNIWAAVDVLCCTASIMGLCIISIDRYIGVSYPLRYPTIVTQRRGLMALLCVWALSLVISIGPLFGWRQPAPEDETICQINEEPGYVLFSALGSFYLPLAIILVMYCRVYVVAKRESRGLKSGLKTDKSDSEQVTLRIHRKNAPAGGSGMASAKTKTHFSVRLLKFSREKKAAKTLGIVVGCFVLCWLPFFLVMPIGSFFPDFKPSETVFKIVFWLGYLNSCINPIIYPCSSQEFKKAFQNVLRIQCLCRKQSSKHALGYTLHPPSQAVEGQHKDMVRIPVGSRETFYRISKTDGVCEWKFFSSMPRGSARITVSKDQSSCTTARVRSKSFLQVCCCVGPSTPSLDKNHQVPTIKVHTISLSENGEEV
- testDetails: Agonist activity at adrenergic alpha-1A receptor (unknown origin) expressed in cells assessed as change in fluorescence measured after 24 hrs by FLIPR assay
pEC50: −log10 of the molar value.

- chemicalStructure: "Cc1cnc2c(-c3ccc(C(=O)N(c4ncccc4C)[C@@H]4CCCNC4)cc3F)cnn2c1"
  assayTarget: "Alpha-1A adrenergic receptor (Homo sapiens, UniProt P35348)"
  pEC50: "< 5.00"

----------
- assayTarget: 3',5'-cyclic-AMP phosphodiesterase 4D (Homo sapiens)
- Sequence (Q08499 whole entry): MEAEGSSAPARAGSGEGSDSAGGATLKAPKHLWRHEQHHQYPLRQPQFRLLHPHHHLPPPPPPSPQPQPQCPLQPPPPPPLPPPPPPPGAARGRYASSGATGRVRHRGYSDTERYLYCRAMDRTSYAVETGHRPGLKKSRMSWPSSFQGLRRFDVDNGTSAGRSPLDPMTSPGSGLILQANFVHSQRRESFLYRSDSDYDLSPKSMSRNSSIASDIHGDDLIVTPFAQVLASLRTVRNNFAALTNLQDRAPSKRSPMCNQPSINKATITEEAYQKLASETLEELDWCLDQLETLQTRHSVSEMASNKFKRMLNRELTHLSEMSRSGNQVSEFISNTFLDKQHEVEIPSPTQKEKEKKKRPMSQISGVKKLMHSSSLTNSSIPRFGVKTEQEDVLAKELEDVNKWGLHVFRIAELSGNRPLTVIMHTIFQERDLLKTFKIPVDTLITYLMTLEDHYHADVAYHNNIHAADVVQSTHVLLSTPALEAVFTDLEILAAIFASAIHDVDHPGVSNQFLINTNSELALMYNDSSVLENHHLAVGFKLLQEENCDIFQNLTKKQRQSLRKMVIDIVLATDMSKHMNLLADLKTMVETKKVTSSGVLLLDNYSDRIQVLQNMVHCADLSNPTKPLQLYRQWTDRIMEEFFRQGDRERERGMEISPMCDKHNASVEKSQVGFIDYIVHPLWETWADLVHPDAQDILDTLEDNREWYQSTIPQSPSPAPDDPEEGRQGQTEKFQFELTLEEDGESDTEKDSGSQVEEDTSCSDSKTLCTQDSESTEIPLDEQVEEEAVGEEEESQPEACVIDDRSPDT

- chemicalStructure: "Cc1cnc2c(-c3ccc(C(=O)N(c4ncccc4C)[C@@H]4CCCNC4)cc3F)cnn2c1"
  IC50 (µM): 39

----------
- assayTarget: Proprotein convertase subtilisin/kexin type 9 (Homo sapiens)
- Sequence (Q8NBP7 31-152 limits assumed): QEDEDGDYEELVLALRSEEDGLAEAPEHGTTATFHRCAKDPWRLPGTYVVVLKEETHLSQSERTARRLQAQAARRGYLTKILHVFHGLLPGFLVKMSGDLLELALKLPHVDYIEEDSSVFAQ
- Sequence (Q8NBP7 153-692 limits assumed): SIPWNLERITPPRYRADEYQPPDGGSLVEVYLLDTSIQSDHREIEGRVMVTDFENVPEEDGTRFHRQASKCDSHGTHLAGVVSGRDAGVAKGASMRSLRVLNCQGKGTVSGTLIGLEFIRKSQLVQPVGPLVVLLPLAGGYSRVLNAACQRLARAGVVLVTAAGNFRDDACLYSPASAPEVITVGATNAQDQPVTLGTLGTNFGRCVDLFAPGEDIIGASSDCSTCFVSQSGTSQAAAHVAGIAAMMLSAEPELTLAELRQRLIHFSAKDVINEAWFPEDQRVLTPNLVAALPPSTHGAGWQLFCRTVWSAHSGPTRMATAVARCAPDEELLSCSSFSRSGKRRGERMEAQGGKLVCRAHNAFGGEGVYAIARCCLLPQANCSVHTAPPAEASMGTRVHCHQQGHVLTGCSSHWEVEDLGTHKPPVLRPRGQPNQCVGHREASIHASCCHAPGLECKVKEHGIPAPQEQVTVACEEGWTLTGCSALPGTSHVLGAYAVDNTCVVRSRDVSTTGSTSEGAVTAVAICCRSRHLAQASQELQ
- testDetails: Inhibition of PCSK9 translation in human THP-1 cells by AlphaLISA assay
As shown below, each of these compounds has a reported IC50 value.

- chemicalStructure: "Cc1ccc2nnn(-c3ccc(C(=O)N(c4ncccc4Cl)[C@@H]4CCCNC4)cc3)c2n1"
  unit: "nM"
  IC50: 900
- chemicalStructure: "O=C(c1ccc(-c2cnn3cccnc23)cc1)N(c1nccc2ccccc12)[C@@H]1CCCNC1"
  unit: "nM"
  IC50: 1300
- chemicalStructure: "CN(C)c1cncc(-c2ccc(C(=O)N(c3ncccc3Cl)[C@@H]3CCCNC3)cc2)n1"
  unit: "nM"
  IC50: 3000
- chemicalStructure: "COC(=O)c1c(-c2ccc(C(=O)N(c3ncccc3C)[C@@H]3CCCNC3)cc2)cnn1C"
  unit: "nM"
  IC50: 2500
- chemicalStructure: "Cc1cccnc1N(C(=O)c1ccc(-c2cnn3cccnc23)cc1)[C@@H]1CCCNC1"
  unit: "nM"
  IC50: 2200
- chemicalStructure: "Cc1cnc2c(-c3ccc(C(=O)N(c4ncccc4C)[C@@H]4CCCNC4)cc3F)cnn2c1"
  unit: "nM"
  IC50: 1700
- chemicalStructure: "Cc1cncc(-c2ccc(C(=O)N(c3ncccc3Cl)[C@@H]3CCCNC3)cc2)n1"
  unit: "nM"
  IC50: 2800
- chemicalStructure: "CNc1cncc(-c2ccc(C(=O)N(c3ncccc3Cl)[C@@H]3CCCNC3)cc2)n1"
  unit: "nM"
  IC50: 3100

----------
- testDetails: Solubility of compound at pH 7.4
- Assay type: physicochemical
- recordedConditions: buffer

- chemicalStructure: "Cc1cnc2c(-c3ccc(C(=O)N(c4ncccc4C)[C@@H]4CCCNC4)cc3F)cnn2c1"
  unit: "µM"
  solubility: 460

----------
- assayTarget: UniProt:P21728
- Sequence (P21728 whole entry): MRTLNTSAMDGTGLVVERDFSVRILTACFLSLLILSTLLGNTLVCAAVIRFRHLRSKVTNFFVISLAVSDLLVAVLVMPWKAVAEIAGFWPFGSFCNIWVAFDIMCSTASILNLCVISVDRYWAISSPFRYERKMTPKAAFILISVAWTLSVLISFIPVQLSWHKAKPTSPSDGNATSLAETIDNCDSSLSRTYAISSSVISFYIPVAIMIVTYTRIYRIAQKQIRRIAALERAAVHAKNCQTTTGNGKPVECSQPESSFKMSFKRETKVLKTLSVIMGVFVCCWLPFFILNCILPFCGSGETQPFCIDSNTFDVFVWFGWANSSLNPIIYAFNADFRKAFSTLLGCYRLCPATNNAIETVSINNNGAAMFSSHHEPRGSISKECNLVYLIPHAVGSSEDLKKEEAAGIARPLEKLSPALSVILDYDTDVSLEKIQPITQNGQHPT
- testDetails: Agonist activity at dopamine D1 receptor (unknown origin) expressed in cells assessed as change in fluorescence measured after 24 hrs by FLIPR assay
pEC50: −log10 of the molar value.
parameterMeasured: pEC50

- chemicalStructure: "Cc1cnc2c(-c3ccc(C(=O)N(c4ncccc4C)[C@@H]4CCCNC4)cc3F)cnn2c1"
  endpointValue: "< 5.00"

----------
- assayTarget: Histamine H1 receptor (Homo sapiens)
- Sequence (P35367 whole entry): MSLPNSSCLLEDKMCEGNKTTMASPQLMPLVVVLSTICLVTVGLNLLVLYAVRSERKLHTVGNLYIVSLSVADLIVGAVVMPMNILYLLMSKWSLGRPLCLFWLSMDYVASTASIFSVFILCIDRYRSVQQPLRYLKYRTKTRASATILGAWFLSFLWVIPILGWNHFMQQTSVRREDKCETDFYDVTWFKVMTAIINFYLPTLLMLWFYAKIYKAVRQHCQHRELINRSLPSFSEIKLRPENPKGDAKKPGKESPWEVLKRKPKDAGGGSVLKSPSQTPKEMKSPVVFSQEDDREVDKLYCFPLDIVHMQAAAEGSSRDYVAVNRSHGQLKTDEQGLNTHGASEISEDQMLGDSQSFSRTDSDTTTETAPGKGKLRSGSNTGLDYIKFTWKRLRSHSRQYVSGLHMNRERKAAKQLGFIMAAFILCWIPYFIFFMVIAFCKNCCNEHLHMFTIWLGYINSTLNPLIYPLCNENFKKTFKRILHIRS
- testDetails: Agonist activity at histamine H1 receptor (unknown origin) expressed in cells assessed as change in fluorescence measured after 24 hrs by FLIPR assay
- Assay type: functional, cell-based

- chemicalStructure: "Cc1cnc2c(-c3ccc(C(=O)N(c4ncccc4C)[C@@H]4CCCNC4)cc3F)cnn2c1"
  EC50: "> 10 µM"

----------
- assayTarget: cGMP-specific 3',5'-cyclic phosphodiesterase (Homo sapiens, UniProt O76074)

- chemicalStructure: "Cc1cnc2c(-c3ccc(C(=O)N(c4ncccc4C)[C@@H]4CCCNC4)cc3F)cnn2c1"
  assayTarget: "cGMP-specific 3',5'-cyclic phosphodiesterase (Homo sapiens, UniProt O76074)"
  IC50: "> 200 µM"
